// data source = the supplement of paper PMC10567573

B1: TRIM9 (parent)
chain: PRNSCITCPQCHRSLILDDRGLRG

- Variants of: B1
- Assay Text: protein stability index of a GFP-peptide fusion (GPS, HEK-293T) (PSI 1-6); higher = more stable;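 further: lentivirally expressed fusions sorted by FACS into six bins by GFP to DsRed ratio, PSI derived from sequencing read proportions per bin multiplied by bin number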
- Condition Context: c terminus: a fixed tail appended
Endpoint: protein stability index
Output: the number by itself.

Ordered Residues | protein stability index
PRNHCITCPQCHRSLILDDRGLRG [S4H] | 2.14
QRNSCITCPQCHRSLILDDRGLRG [P1Q] | 1.83
PRNSCITCPQCHRSLILDDRGTRG [L22T] | 3.33

I have this variant here, PRNSCITCPQCHRSLILCDRGLRG [D18C] , and I need its recorded protein stability index. 2.05

I have this variant here, PRNSCIFCPQCHRSLILDDRGLRG [T7F] , and I need its recorded protein stability index. 1.84

I have this variant here, PRNSCITCPQCHRSLILDDRGLRT [G24T] , and I need its recorded protein stability index. 2.23

I have this variant here, PRISCITCPQCHRSLILDDRGLRG [N3I] , and I need its recorded protein stability index. 1.92

I have this variant here, PRNSCITCPQCHFSLILDDRGLRG [R13F] , and I need its recorded protein stability index. 2.09
